Tested on: L1210 leukemia ip in BDF1 mice, survival T/C
ASSAY_COMMENT: NCI In Vivo Anticancer Drug Screen. Data for tumor model L1210 Leukemia (intraperitoneal) in B6D2F1 (BDF1) mice
MEASUREMENT_PARAMETERS: endpoint: mean survival time; dose: 25.0 mg/kg/injection; schedule: Q04DX002 (ip); vehicle: Klucel (hydroxypropylcellulose) (HPC); higher = longer survival
Inconclusive results and toxic doses are left out.
PARAMETER: T/C

Sample answers from the record:
- COc1ccc(Oc2cccc3c2CCN(C)C3)cc1: 115 % of control
- Cc1ccc(C(=O)C=Nc2ccc(S(N)(=O)=O)cc2)cc1: 115 % of control
- CCOC(=O)CCC(=O)N(C)CCc1ccc(OC)c(OC)c1: 117 % of control
- COc1cc(Cn2cccc2/C=N/NC(N)=S)cc(OC)c1: 105 % of control
- O=C(C1C(c2ccccc2)C1c1ccccc1)N(CCCl)Cc1ccccc1 (stereo not drawn): 97 % of control

Request: Field: T/C (L1210 leukemia ip in BDF1 mice, survival T/C). Entry: "CC(C)(C)Nc1ccc(C#N)cc1"
Response: 94 % of control

Request: Field: T/C (L1210 leukemia ip in BDF1 mice, survival T/C). Entry: "Oc1cc(Br)c(O)c(Br)c1"
Response: 109 % of control

Request: Field: T/C (L1210 leukemia ip in BDF1 mice, survival T/C). Entry: CC1(C)C2=CCCC2CC/C1=N/NC(N)=O (stereo not drawn)
Response: 107 % of control
